Known half-life at 2 µM of a selection of molecules
Assay: in vitro
Details: human, plasma, pH 7.4
Write the value in h as a bare number.

IN: For the molecule shown here, "CC(C)[N+](C)(CCOC(=O)C1c2ccccc2Oc2ccccc21)C(C)C" , give the reported half-life at 2 µM.
OUT: 0.76

IN: For the molecule shown here, "CC[C@H](C)C(=O)O[C@H]1C[C@@H](C)C=C2C=C[C@H](C)[C@H](CC[C@@H]3C[C@@H](O)CC(=O)O3)[C@H]21" , give the reported half-life at 2 µM.
OUT: 10.8

====

Known remaining at 2 h, 2 µM of a selection of compounds
Test: in vitro
Conditions: human, plasma, pH 7.4
Write the value in % as a bare number.

CC(C)[N+](C)(CCOC(=O)C1c2ccccc2Oc2ccccc21)C(C)C: 13.3

Next compound, remaining at 2 h, 2 µM to be filled in.
IN: For the compound shown here, "CC[C@H](C)C(=O)O[C@H]1C[C@@H](C)C=C2C=C[C@H](C)[C@H](CC[C@@H]3C[C@@H](O)CC(=O)O3)[C@H]21" , give the reported remaining at 2 h, 2 µM.
OUT: 81.1

====

Test: CYP450 time-dependent inhibition, all isoenzymes together
Type: in vitro ADME, human
Details: all isoenzymes; +/− NADPH, with and without 30-min preincubation; read-out: Inhibition of CYP450 isoenzymes at 50 µM (maximum test concentration)
Ends that are not written are not given here.
measured.quantity: inhibition at 50 µM

IN: For the sequence shown here, LRKLRKRLLRLVGRQLEEFL [HM-10/10, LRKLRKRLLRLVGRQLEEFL] , give the reported inhibition at 50 µM.
OUT: -26.4 to 42.2%

====

Target: CYP2C19 (Homo sapiens)
Sequence (P33261 whole entry): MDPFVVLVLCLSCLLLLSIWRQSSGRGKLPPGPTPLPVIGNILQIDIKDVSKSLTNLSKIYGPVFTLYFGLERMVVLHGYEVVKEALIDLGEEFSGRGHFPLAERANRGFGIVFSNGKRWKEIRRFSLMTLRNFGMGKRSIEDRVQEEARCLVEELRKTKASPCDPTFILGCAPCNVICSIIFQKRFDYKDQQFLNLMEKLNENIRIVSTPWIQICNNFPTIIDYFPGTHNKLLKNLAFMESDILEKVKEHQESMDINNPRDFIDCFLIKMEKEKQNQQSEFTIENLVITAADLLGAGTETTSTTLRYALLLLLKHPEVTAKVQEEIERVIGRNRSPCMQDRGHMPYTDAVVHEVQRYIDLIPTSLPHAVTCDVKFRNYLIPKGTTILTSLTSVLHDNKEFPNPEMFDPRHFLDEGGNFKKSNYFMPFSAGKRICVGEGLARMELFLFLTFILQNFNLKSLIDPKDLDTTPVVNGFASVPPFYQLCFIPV
Assay: CYP450 time-dependent inhibition, CYP2C19, pooled human liver microsomes
Details: IC50 (µM) No PI + NADPH, Mephenytoin (2C19); No PI + NADPH
measured.quantity: IC50

IN: For the molecule shown here, COc1ccc2[nH]c([S+]([O-])Cc3ncc(C)c(OC)c3C)nc2c1 (stereo not shown) [Omeprazole, omeprazole] , give the reported IC50.
OUT: 4.77 µM

====

Assay: Metabolic stability in CD-1 mouse liver microsomes
Assay type: in vitro ADME
Conditions: pooled liver microsomes, pH 7.4, CD-1 mouse liver microsomes 0.5 mg protein/mL
Ends that are not written are not given here.
measured.quantity: half-life at 2 µM (min)
Write the value in min as a bare number.

IN: For the sequence shown here, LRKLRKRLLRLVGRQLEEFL [HM-10/10, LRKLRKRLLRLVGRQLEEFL] , give the reported half-life at 2 µM.
OUT: 32

====

Assay: Stability in potassium phosphate buffers of pH 1.3, 5.5 and 7.4
Assay type: physicochemical
Settings: potassium phosphate buffer, Physiological pH (pH 7.4), read-out: % Remaining at 60 min
Ends that are not written are not given here.
measured.quantity: remaining at 1 h, 2 µM (%)
Write the value in % as a bare number.

IN: For the sequence shown here, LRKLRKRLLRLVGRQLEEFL [HM-10/10, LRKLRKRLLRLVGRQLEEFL] , give the reported remaining at 1 h, 2 µM.
OUT: 81.4

====

Experiment: Metabolic stability in cryopreserved CD-1 mouse hepatocytes
Assay type: in vitro ADME
Settings: mouse, hepatocytes, CD-1 mouse hepatocytes 0.5 million cells/mL; 2 μM; read-out: CLint (mL/min/kg)
Ends that are not written are not given here.
measured.quantity: CLint scaled

IN: For the sequence shown here, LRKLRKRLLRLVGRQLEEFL [HM-10/10, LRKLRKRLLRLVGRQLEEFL] , give the reported CLint scaled.
OUT: > 1090 mL/min/kg
